Could you please report measured Percent Effect for the items listed next?
target: Arginase-2, mitochondrial (Homo sapiens) (UniProt P78540); test: in vitro enzyme assay to detect the production of urea directly proportional to the activity of Arginase II; type: functional; parameters: scale not given: in the data most compounds retested in dose-response had high values; settings: 33.3 µM
Sequence (P78540 whole entry): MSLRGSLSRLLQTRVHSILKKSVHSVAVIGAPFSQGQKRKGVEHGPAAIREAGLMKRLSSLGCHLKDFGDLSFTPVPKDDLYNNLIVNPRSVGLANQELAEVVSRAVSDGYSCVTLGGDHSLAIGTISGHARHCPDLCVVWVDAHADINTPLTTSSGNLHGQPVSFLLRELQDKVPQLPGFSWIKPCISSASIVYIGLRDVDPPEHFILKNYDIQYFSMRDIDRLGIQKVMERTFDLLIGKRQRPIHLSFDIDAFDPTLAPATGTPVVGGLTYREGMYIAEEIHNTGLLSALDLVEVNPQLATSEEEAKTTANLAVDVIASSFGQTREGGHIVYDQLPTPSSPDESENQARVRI
Give just the numeric value; % need not be written.

Input: Consider the compound `Cc1ncc2c(n1)CN(CC(=O)Nc1nncs1)CC2` and give its measured Percent Effect.
Output: 1.08

Input: Try this compound too: Cc1cc(C)n(CCCNC(=O)C(C)NC(=O)c2ccccc2Cl)n1 (configuration not stated)
Output: 0

Input: Same thing, different compound: `CCCc1nc(CN2CCN(Cc3noc(CCC)n3)CC2)no1`
Output: -8.39

Input: Same read-out for `O=C(NC[C@@H]1CCCN1)c1cc(COc2cccc(C(F)(F)F)c2)[nH]n1` ?
Output: 21.6

Input: Okay, and COC(=O)c1ccc2ccn(CC3CCNC3)c(=O)c2c1 (configuration not stated) ?
Output: 2.27

Input: Same for `CC(C)c1nn(CC(=O)N2CCCCC2)c(=O)c2c1cnn2C(C)(C)C`
Output: 0.455

Input: Cool, now CCSCCNC(=O)C(c1cccc(C)c1)N(C)C (configuration not stated)
Output: 1.43

Input: Repeat for the following compound: COc1cccc(C2CC(=O)Nc3nc(N4CCOCC4)sc32)c1OC (configuration not stated)
Output: 21.3

Input: Can you check `O=C(c1ccc(=O)[nH]n1)N1CC(c2nc(Cc3ccccc3)no2)C1` next?
Output: 20.9

Input: And for `Cc1nc(CN2C(=O)C[C@@H]3[C@@H]2CCN3C(=O)C2CCOCC2)cs1` ?
Output: -5.19

Input: Next compound up: `Cc1cc(C(F)(F)F)c2c(C3CCN(S(=O)(=O)N(C)C)CC3)noc2n1`
Output: 1.62

Input: Now consider `CCN1CCN(C(=O)CCc2c(C)noc2Cl)CC1` and answer again.
Output: 4.32

Input: What about this compound? `COc1ccc(CCN2CCN(C(=O)c3scnc3C)CC2)cc1`
Output: -3.55

Input: Further, for `Cn1cc(C(=O)NCC2CCN(C(=O)NCC(F)(F)F)CC2)cn1` ?
Output: 0.645

Input: Now consider `Cc1nc(N2CCCC2)nc2c1CCN(C(=O)C1CCCC1)CC2` .
Output: -4.4

Input: Also need `Cc1nc([C@@H]2C[C@@H]3CCN(C(=O)c4occc4C)C[C@H]3O2)no1` , thanks.
Output: -52.1

Input: Cool, now CCc1cnc(N2CCC(=O)N(CC3CC3)C(C(C)C)C2)nc1 (configuration not stated)
Output: 4.29

Input: Queued: COc1c(C)cnc(CN2CCCCC2Cn2nc(C)nc2C)c1C (configuration not stated)
Output: 5.32

Input: // next record CC(=O)N(Cc1noc(C)n1)C1CCN(Cc2ccon2)C1 (configuration not stated)
Output: -3.66

Input: Item: `Cc1cc(CN2CCN(C(=O)CCc3cccc(F)c3F)CC2)on1`
Output: 10.9

Input: Try this compound too: CCc1nc2n(n1)CC(NCc1ccnc(-c3ccccc3)n1)CC2 (configuration not stated)
Output: 3.6

Input: Same thing, different compound: `CCO[C@@H]1CC[C@H]2[C@H]1OCCN2C(=O)C1CCOCC1`
Output: 3.33

Input: Would you mind doing `c1ccc(-c2nnc(CNCCn3cccn3)o2)cc1` as well?
Output: 3.04

Input: Note, next up: `COc1cccc(CN(C)S(=O)(=O)N2CCOCC2)c1`
Output: -10.7

Input: Please answer likewise for O=C(Nc1ccnc(OC2CCOC2)c1)C1CCC1 (configuration not stated)
Output: 1.32

Input: Query `OC[C@H]1CC[C@]2(CC1)CN(Cc1ccccc1F)Cc1ccccc1O2` next
Output: 2.55

Input: Same lookup for `Cn1ccnc1CN1CC[C@@H](NS(C)(=O)=O)[C@@H]1Cc1cccnc1` , please.
Output: -2.23

Input: Next up: `CS(=O)(=O)c1ccc(OCCNCc2cccc(F)c2)cc1`
Output: -0.798

Input: Try this compound next: `CCn1ccnc1CN1CCN(CCOc2ccccc2OC)CC1`
Output: 4.21

Input: What do you get for CCn1c(C)nnc1CN(C)C1CCN(CCn2cccn2)C1 (configuration not stated) ?
Output: -1.05

Input: Note, next up: Cc1nc(CN(Cc2ccccc2)C2CCS(=O)(=O)C2)oc1C (configuration not stated)
Output: -1.08

Input: Another compound to look at: `CNC(=O)c1cc2c(nc1NCC(C)C)CCN(S(=O)(=O)C1CC1)CC2`
Output: -1.24

Input: And `Cc1ccoc1C(=O)N1CCO[C@H]2[C@H](OCCN(C)C)CC[C@@H]21` ?
Output: -56.5

Input: Now try `CCc1nc(CN2CCN(c3ncnc4cc(F)ccc34)CC2)no1` .
Output: 0

Input: Please do the same for `COc1cc2ncn(CC(=O)NCCCN(C)C)c(=O)c2cc1OC` as well.
Output: -3.35

Input: Now the compound CNc1cc(N2CCCC2CNCc2ccccn2)ncn1 (configuration not stated)
Output: -2.08

Input: Then this compound: CCC(C)[C@H](NC(=O)c1cc(Br)ccc1-n1cnnn1)C(=O)OC (some centres not stated)
Output: -11.1

Input: What would you report for OC(COc1ccccc1)CN1CCC(c2ccn[nH]2)CC1 (configuration not stated) ?
Output: 3.04

Input: Similarly, CCC(C)(C)NC(=O)CN(C)C(c1cccc(F)c1)c1ccccn1 (configuration not stated) ?
Output: 3.56

Input: Proceed to Cc1cnc(C(=O)N2CCCC(n3ccnc3C)C2)cn1 (configuration not stated)
Output: 0.36

Input: Proceed to `CC(C)(NCC(=O)NCC(F)(F)F)c1ccc2c(c1)OCCO2`
Output: 17.2

Input: Also, COc1cc(CNC2CCCc3c2cnn3C)cc(OC)c1 (configuration not stated) please.
Output: -3.61

Input: How about this compound: `NC(=O)COc1ccc(CNCc2ccc(F)c(F)c2)cc1`
Output: 3.53

Input: For `Cc1cccc(Cn2ccc(NS(C)(=O)=O)n2)c1` then?
Output: -40

Input: // same read-out, input: `COCC(=O)N1CCC2(CC1)COCCN2CCN(C)C`
Output: -50

Input: How about `O=C1CCCc2cc(-c3csc(CCN4CCOC4=O)n3)ccc2N1` ?
Output: 2.85

Input: And CCc1nc(CN(C)C2CCN(Cc3ccc(C#N)cc3F)C2)no1 (configuration not stated) ?
Output: -6.01
